TGI values for the compounds below.
tested on: RXF-631 renal; experiment: NCI tumour cell line growth inhibition, 48 h

What measured TGI goes with Cn1cnc([N+](=O)[O-])c1Sc1n[nH]c(-c2ccc(Cl)cc2)n1 ? 59 µM

Here is the next compound: N=S(c1ccccc1[N+](=O)[O-])c1ccccc1[N+](=O)[O-] 3.43 µM

// next record CCOC(=O)c1c(CN2CCNCC2)nc2ccc(Cl)cc2c1-c1ccccc1 6.68 µM

Consider next the compound COC(=O)C(Cc1nc2ccc(Cl)cc2[nH]c1=O)C(=O)C(=O)Nc1cc(C)ccc1C (stereo not given) in the same way. > 100 µM

Another compound: O=C1CCC2(c3ccc(Cl)cc3)Nc3ccccc3N12 (stereo not given) > 100 µM

Cited source for all entries: PubChem BioAssay (NCI)
